Assay: Urinary metabolites in 24 h urine by HPLC-MS/MS
Type: in vivo, FVB mice
Conditions: after oral ZST316, total dose 1.308 mg, mouse #3, 24 h urine
Please note: Yes applies when Amount Recovered in urine is 70 µg or greater, and No applies otherwise.

Some solved entries appear below for comparison.
>>> grouplabel("COCCNC(=N)NCCC[C@H](N)C(=O)NS(C)(=O)=O")
"No"
>>> grouplabel("COCCNC(=N)NCCCC(=O)O")
"Yes"

Entry COCCNC(=N)NCCC[C@H](N)C(=O)O : is its Amount Recovered in urine no less than 70 µg? Yes

Entry COCCNC(=N)NCCC[C@H](O)C(=O)O : is its Amount Recovered in urine no less than 70 µg? No

Entry COCCNC(=N)N : is its Amount Recovered in urine no less than 70 µg? No
